Data credit: ChEMBL document CHEMBL5244223

system: U-251; experiment: Cytotoxicity against human U-251 cells assessed as cell growth inhibition incubated for 48 hrs by sulforhodamine B reagent assay; type: functional, cell-based; details: U-251, 48 h
measure name: IC50 (nM)
Give bare numbers, in nM.

>>> print(df.to_string())
                              sample_smiles  measure_name  reported_value
0  CN1CCN(c2ccc3nc(-c4ccc(OCCCN5C(=O)c6cccc7cccc(c67)C5=O)cc4)[nH]c3c2)CC1          IC50             110

Next item in the queue.
q: For the compound O=C1c2cccc3cccc(c23)C(=O)N1CCCCOc1ccc(-c2nc3ccc(N4CCOCC4)cc3[nH]2)cc1 , what IC50 is on record?
a: 110
